- target_or_system: Recombinant human CETP (Homo sapiens, UniProt P11597)
- Sequence (P11597 18-493): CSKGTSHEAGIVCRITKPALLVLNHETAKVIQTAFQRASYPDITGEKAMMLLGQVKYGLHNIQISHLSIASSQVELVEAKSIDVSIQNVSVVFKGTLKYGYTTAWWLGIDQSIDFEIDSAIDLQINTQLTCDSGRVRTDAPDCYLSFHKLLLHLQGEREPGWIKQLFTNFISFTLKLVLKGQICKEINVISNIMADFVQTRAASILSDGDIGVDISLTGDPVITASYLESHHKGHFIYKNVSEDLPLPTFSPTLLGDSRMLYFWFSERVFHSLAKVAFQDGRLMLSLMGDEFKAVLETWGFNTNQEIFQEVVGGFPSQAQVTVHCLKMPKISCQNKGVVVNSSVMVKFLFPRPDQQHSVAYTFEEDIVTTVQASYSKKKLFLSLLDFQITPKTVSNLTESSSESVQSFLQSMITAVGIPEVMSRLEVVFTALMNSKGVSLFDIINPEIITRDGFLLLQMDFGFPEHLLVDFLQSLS
- assay: CETP in vitro assay (fluorometric assay, Roar Biomedical; cholesterol ester transfer from HDL to LDL)
- condition: recombinant human CETP from CHO cells; 3 hours at 37° C.; fluorescence 485/535 nm; compound concentrations between 1 nM and 30 μM; read-out: IC50 values for inhibition of CETP
pIC50: −log10 of the molar value.
readout_kind: pIC50

INSERT INTO assay_data (compound, val) VALUES
  ('COC(C)(C)c1nc2c(c3c1[C@@H](c1ccc(C(F)(F)F)cc1)OC31CCOCC1)[C@@H](O)CC(C)(C)C2', 7.60),
  ('C=C(C)c1ccc([C@H]2OC3(CCCC3)c3c2c(C(C)C)nc2c3[C@@H](O)CC(C)(C)C2)cc1', 7.36),
  ('CC(C)c1nc2c(c3c1[C@@H](c1ccc(C(F)(F)F)cc1F)OC31CCOCC1)[C@@H](O)CC(C)(C)[C@H]2O', 7.82),
  ('O[C@H]1CC2(CCC2)Cc2nc(C3CCOCC3)c3c(c21)C1(CCOCC1)O[C@@H]3c1ccc(C(F)(F)F)cc1', 7.41),
  ('CC(C)c1nc2c(c3c1[C@@H](c1ccc(C(F)(F)F)cn1)OC31CCOCC1)[C@@H](O)CC1(CCC1)[C@H]2O', 7.38),
  ('CC(=O)O[C@H]1c2nc(C(C)C)c3c(c2[C@@H](O)CC1(C)C)C1(CCOCC1)O[C@@H]3c1ccc(C(F)(F)F)cc1', 6.85),
  ('CC(C)c1nc2c(c3c1[C@H](c1ccc(C(F)(F)F)cn1)OC31CCC(F)(F)CC1)[C@@H](O)CC(C)(C)C2 (single isomer, unassigned) [7 (Diastereomer 2)]', 5.94),
  ('CC(C)c1nc2c(c3c1[C@@H](c1ccc(C(C)(C)C)cc1)OC31CCCC1)[C@@H](O)CC(C)(C)[C@@H]2O', 6.68),
  ('CC(C)(C)c1ccc([C@H]2OC3(CCOCC3)c3c2c(C2CCOCC2)nc2c3[C@@H](O)CC(C)(C)[C@H]2O)cc1', 7.29),
  ('O[C@H]1CC2(CCC2)Cc2nc(C3CCOCC3)c3c(c21)C1(CCOCC1)O[C@@H]3c1ccc(C(F)(F)F)nc1', 6.44),
  ('CC(C)c1nc2c(c3c1[C@@H](c1ccc(C(F)(F)F)c(F)c1)OC31CCOCC1)[C@@H](O)CC(C)(C)[C@H]2O', 7.89),
  ('CC(C)c1nc2c(c3c1[C@@H](c1ccc(C(F)(F)F)nc1)OC31CCCC1)[C@@H](O)CC(C)(C)[C@H]2O', 6.90),
  ('CC(C)c1nc2c(c3c1[C@@H](c1ccc(S(F)(F)(F)(F)F)cc1)OC31CCOCC1)[C@@H](O)CC1(CCC1)[C@H]2O', 7.85),
  ('CC(C)c1nc2c(c3c1[C@@H](c1ccc(C(F)(F)C(F)(F)F)cc1)OC31CCCC1)[C@@H](O)CC(C)(C)C2', 7.08);

---

Measured IC50, listed per entry for reference.
- target_or_system: Recombinant human CETP (Homo sapiens, UniProt P11597)
- Construct: made in house; host or cells: CHO cells (secreted into conditioned medium)
- assay: CETP in vitro assay (fluorometric assay, Roar Biomedical; cholesterol ester transfer from HDL to LDL)
- Type: biochemical
- condition: recombinant human CETP from CHO cells; 3 hours at 37° C.; fluorescence 485/535 nm; compound concentrations between 1 nM and 30 μM; read-out: IC50 values for inhibition of CETP
readout_kind: IC50 (nM)

INSERT INTO results (molecule, value_unit, val) VALUES
  ('CC(C)Oc1ccc([C@H]2OC3(CCOCC3)c3c2c(C(C)C)nc2c3[C@@H](O)CC(C)(C)C2)cc1', 'nM', 245),
  ('CC(C)c1nc2c(c3c1[C@@H](c1ccc(C(C)(C)C)cc1)OC31CCCC1)[C@@H](O)CC(C)(C)[C@H]2O', 'nM', 21),
  ('CC(C)c1nc2c(c3c1[C@@H](c1ccc(S(F)(F)(F)(F)F)cc1)OC31CCCC1)[C@@H](O)CC(C)(C)C2', 'nM', 31),
  ('CC(C)c1nc2c(c3c1[C@H](c1ccc(C(F)(F)F)cc1)OC31CCCC1)[C@H](O)CC(C)(C)C2 (single isomer, unassigned) [2 (Diastereomer 1)]', 'nM', 699),
  ('CC(C)c1nc2c(c3c1[C@@H](c1ccc(C(F)(F)F)c(C#N)c1)OC31CCOCC1)[C@@H](O)CC1(CCC1)C2', 'nM', 18),
  ('CC(C)c1nc2c(c3c1[C@@H](c1ccc(C(F)(F)F)cn1)OC31CCOCC1)[C@@H](O)CC(C)(C)C2', 'nM', 161),
  ('CC(C)c1nc2c(c3c1[C@@H](c1ccc(S(F)(F)(F)(F)F)cc1)OC31CCOCC1)[C@@H](O)CC(C)(C)C2', 'nM', 24);

---

- target_or_system: Recombinant human CETP (Homo sapiens, UniProt P11597)
- assay: CETP in vitro assay (fluorometric assay, Roar Biomedical; cholesterol ester transfer from HDL to LDL)
- condition: recombinant human CETP from CHO cells; 3 hours at 37° C.; fluorescence 485/535 nm; compound concentrations between 1 nM and 30 μM; read-out: IC50 values for inhibition of CETP
- Protocol: CETP inhibitory activity of compounds of the present invention can be determined in a fluorometric assay purchased from Roar Biomedical, Inc. (New York, N.Y., USA). […] Recombinant human CETP was partially purified from medium conditioned by CETP expressing CHO cells. […] The fluorescence intensity was measured at excitation wavelength of 485 nm and emission wavelength of 535 nm. […]
The reader will find reported log10 of IC50 values listed item by item below.
readout_kind: log10 of IC50 (log10 of the value in nM)

INSERT INTO assay_data (molecule, readout_kind, val) VALUES
  ('CC(C)c1nc2c(c3c1[C@@H](c1ccc(C(F)(F)F)nc1)OC31CCOCC1)[C@@H](O)CC(C)(C)[C@H]2O', 'log10 of IC50', 2.62),
  ('CC(C)c1nc2c(c3c1[C@@H](c1ccc(C(F)(F)F)cc1)OC31CCOCC1)[C@@H](O)CC1(CCCC1)C2', 'log10 of IC50', 1.91),
  ('Cc1nc([C@H]2OC3(CCOCC3)c3c2c(C(C)C)nc2c3[C@@H](O)CC(C)(C)C2)sc1C(C)(C)C', 'log10 of IC50', 2.67),
  ('COC(C)c1nc2c(c3c1[C@@H](c1ccc(C(F)(F)F)cc1)OC31CCOCC1)[C@@H](O)CC(C)(C)C2 (stereo partly shown)', 'log10 of IC50', 2.03),
  ('CC1(C)Cc2nc(C(C)(C)C)c3c(c2[C@@H](O)C1)C1(CCOCC1)O[C@@H]3c1ccc(C(F)(F)F)cc1', 'log10 of IC50', 1.67),
  ('CC(C)c1nc2c(c3c1[C@@H](c1ccc(C(F)(F)F)cc1)OC31CCOCC1)[C@@H](O)CC1(CCC1)C2', 'log10 of IC50', 0.85),
  ('CC(=O)O[C@H]1c2nc(C(C)C)c3c(c2[C@@H](O)CC1(C)C)C1(CCCC1)O[C@@H]3c1ccc(C(F)(F)F)nc1', 'log10 of IC50', 3.26);

---

- target_or_system: Recombinant human CETP (Homo sapiens, UniProt P11597)
- assay: CETP in vitro assay (fluorometric assay, Roar Biomedical; cholesterol ester transfer from HDL to LDL)
- condition: recombinant human CETP from CHO cells; 3 hours at 37° C.; fluorescence 485/535 nm; compound concentrations between 1 nM and 30 μM; read-out: IC50 values for inhibition of CETP
pIC50: −log10 of the molar value.
readout_kind: pIC50

INSERT INTO assay_data (compound, readout_kind, val) VALUES
  ('CC(C)c1nc2c(c3c1[C@@H](c1ccc(C(F)(F)F)cn1)OC31CCOCC1)[C@@H](O)CC1(CCC1)C2 [1(49)]', 'pIC50', 7.43),
  ('CC(C)c1nc2c(c3c1[C@@H](c1ccc(C(F)(F)F)cc1F)OC31CCOCC1)[C@@H](O)CC(C)(C)C2 [1(55)]', 'pIC50', 7.59),
  ('O[C@H]1CC2(CCC2)[C@@H](O)c2nc(C3CCOCC3)c3c(c21)C1(CCOCC1)O[C@@H]3c1ccc(C(F)(F)F)cc1 [4(16)]', 'pIC50', 7.36),
  ('CC1(C)Cc2nc(C3CCOCC3)c3c(c2[C@@H](O)C1)C1(CCOCC1)O[C@@H]3c1ccc(C(F)(F)F)c(C#N)c1 [1(74)]', 'pIC50', 7.00);
